Where do these numbers come from? They come from PubChem BioAssay (NCATS).

Measurement protocol: BET inhibitor-based combinations targeting novel dependencies in MECOM-rearranged (r) AML: AML-191 cell line (AID 2202236; note: nearly all actives have a fitted effect of over 35% in size)
Condition notes: AML-191 viability, CellTiter-Glo luminescence, 48 h; series mostly up to 46 µM
Inconclusive results are not listed. The source made the active and inactive calls. Calls come from the whole dose curve; as a rule, active = well fitted inhibition curve with a large enough effect; inconclusive = small, poorly fitted or top-dose-only effect; inactive = flat fitted curve, though single readings scatter.
Outcomes: Y for active, N for inactive

>  <Compound>
Nc1nc(Cl)nc2c1ncn2[C@H]1C[C@H](O)[C@@H](CO)O1

>  <Discrete label>
Y

$$$$
>  <Compound>
CC1=NN(c2ccccc2)C(=O)C1

>  <Discrete label>
N

$$$$
>  <Compound>
Cc1cc(Nc2ncc(Cl)c(Nc3ccccc3S(=O)(=O)C(C)C)n2)c(OC(C)C)cc1C1CCNCC1

>  <Discrete label>
Y

$$$$
>  <Compound>
O=S(=O)(c1cccc2c(I)cccc12)N1CCCNCC1

>  <Discrete label>
N

$$$$
>  <Compound>
CCc1cccc(CC)c1NC(=O)N1Cc2[nH]nc(NC(=O)c3ccc(N4CCN(C)CC4)cc3)c2C1

>  <Discrete label>
Y

$$$$
>  <Compound>
CCOC(=O)C1=C(O)C(=O)N(Cc2ccccc2)C1

>  <Discrete label>
N

$$$$
>  <Compound>
Cc1cnc(Nc2cccc(CN3CCOCC3)c2)nc1Nc1cccc(S(=O)(=O)NC(C)(C)C)c1

>  <Discrete label>
Y

$$$$
>  <Compound>
CN(C)C(=O)[C@H](O)[C@H](Cc1ccccc1)NC(=O)c1cc2cc(Cl)ccc2[nH]1

>  <Discrete label>
N

$$$$
>  <Compound>
CN(C)C/C=C/C(=O)Nc1cccc(C(=O)Nc2cccc(Nc3ncc(Cl)c(-c4c[nH]c5ccccc45)n3)c2)c1

>  <Discrete label>
Y

$$$$
>  <Compound>
COc1cc(C(=O)N2CCC(N3CCN(C)CC3)CC2)ccc1Nc1ncc2c(n1)N(C)c1ccccc1C(=O)N2C

>  <Discrete label>
Y

$$$$
>  <Compound>
O[C@@H](COc1cccc2ncccc12)CN1CCN(C2c3ccccc3[C@@H]3[C@H](c4ccccc42)C3(F)F)CC1 (stereo not given in full)

>  <Discrete label>
Y

$$$$
>  <Compound>
COC(=O)C1=C(C)NC(C)=C(C(=O)OCCCN2CCC(c3ccccc3)(c3ccccc3)CC2)C1c1cccc([N+](=O)[O-])c1 (stereo not given)

>  <Discrete label>
Y

$$$$
>  <Compound>
NC(=O)C1CCCc2c1[nH]c1ccc(Cl)cc21 (stereo not given)

>  <Discrete label>
N

$$$$
>  <Compound>
O=C(Nc1cc(C(F)(F)F)cc(C(F)(F)F)c1)c1cc(Cl)ccc1O

>  <Discrete label>
Y

$$$$
>  <Compound>
CCOC(=O)C(C)(C)Oc1ccc(Cl)cc1

>  <Discrete label>
N

$$$$
>  <Compound>
C[C@H]1C[C@@H]2[C@H]([C@@H](O)C[C@@]3(C)[C@H]2CC[C@]3(O)C(=O)CO)[C@@]2(C)C=CC(=O)C=C12

>  <Discrete label>
Y

$$$$
>  <Compound>
Oc1ccc(C2=Cc3ccc(O)cc3OC2)cc1

>  <Discrete label>
Y

$$$$
>  <Compound>
NCCS(=O)(=O)O

>  <Discrete label>
N

$$$$
>  <Compound>
Cc1cnc(NC(=O)C2=C(O)c3ccccc3S(=O)(=O)N2C)s1

>  <Discrete label>
N

$$$$
>  <Compound>
CCn1cc(C(=O)O)c(=O)c2cc(F)c(N3CCNC(C)C3)c(F)c21 (stereo not given)

>  <Discrete label>
N

$$$$

* * *

Measurement protocol: BET inhibitor-based combinations targeting novel dependencies in MECOM-rearranged (r) AML: MV-4-11 cell line (AID 2202233); note: nearly all actives have a fitted effect of over 45% in size
Condition notes: MV-4-11 AML viability, CellTiter-Glo luminescence, 48 h; series mostly up to 46 µM
Results filed as inconclusive are left out. Active and inactive are the calls of the source. Calls follow the shape of the dose curve; as a rule, active = well fitted inhibition curve with a large enough effect; inconclusive = small, poorly fitted or top-dose-only effect; inactive = no such curve, though single readings can be large or run the other way. Non-standard residues stand in square brackets, D forms with d. Residues, ends and D or L forms follow the SMILES beside them. *: point of attachment. Sta = CC(C)C[C@H](N)[C@@H](O)CC(=O)O; Isovaleryl = CC(C)CC(=O)*
Outcome codes: active, inactive

>  <Compound>
CN1CCN(c2cc(C(=O)Nc3ccc4c(c3)-c3c(c(C(N)=O)nn3-c3ccc(F)cc3)CC4)c(Cl)cn2)CC1

>  <Discrete label>
active

$$$$
>  <Compound>
CCN(CCO)CCCOc1ccc2c(Nc3cc(CC(=O)Nc4cccc(F)c4)[nH]n3)ncnc2c1

>  <Discrete label>
active

$$$$
>  <Compound>
Nc1ccn([C@@H]2C(F)=C(CO)[C@@H](O)[C@H]2O)c(=O)n1

>  <Discrete label>
active

$$$$
>  <Compound>
CN1CCN2c3ncccc3Cc3ccccc3C2C1 (centres undefined)

>  <Discrete label>
inactive

$$$$
>  <Compound>
N[C@@H](Cc1c[nH]c2ccc(O)cc12)C(=O)O

>  <Discrete label>
inactive

$$$$
>  <Compound>
CNC1CCC(N(Cc2cccc(-c3ccncc3)c2)C(=O)c2sc3c(F)ccc(F)c3c2Cl)CC1 (centres undefined)

>  <Discrete label>
active

$$$$
>  <Compound>
CCCS(=O)c1ccc2nc(NC(=O)OC)[nH]c2c1 (centres undefined)

>  <Discrete label>
active

$$$$
>  <Compound>
O=C(O)c1cc(O)c2c(c1)C(=O)c1cccc(O)c1C2=O

>  <Discrete label>
inactive

$$$$
>  <Compound>
CC(C)CC(=O)N[C@H](C(=O)N[C@H](C(=O)N[C@@H](CC(C)C)[C@@H](O)CC(=O)N[C@@H](C)C(=O)N[C@@H](CC(C)C)[C@@H](O)CC(=O)O)C(C)C)C(C)C (Isovaleryl-VV[Sta]A[Sta]-OH)

>  <Discrete label>
inactive

$$$$
>  <Compound>
c1cnc2cc3c(cc2n1)C1CNCC3C1

>  <Discrete label>
inactive

$$$$
>  <Compound>
NC1(Cc2ccc(Cl)cc2)CCN(c2ncnc3[nH]ccc23)CC1

>  <Discrete label>
active

$$$$
>  <Compound>
Cc1cc2c(cc1CC(=O)c1sccc1S(=O)(=O)Nc1onc(C)c1Cl)OCO2

>  <Discrete label>
inactive

$$$$
>  <Compound>
NC(=O)c1ccc(-c2nc(-c3ccc4c(c3)OCO4)c(-c3ccccn3)[nH]2)cc1

>  <Discrete label>
inactive

$$$$
>  <Compound>
C[C@]12C=CC(=O)C=C1CC[C@@H]1[C@@H]2[C@@H](O)C[C@@]2(C)[C@H]1CC[C@]2(O)C(=O)CO

>  <Discrete label>
inactive

$$$$
>  <Compound>
Cc1cc(-c2ncc(CC(=O)Nc3ccc(-c4cnccn4)cn3)cc2C)ccn1

>  <Discrete label>
active

$$$$
>  <Compound>
OCc1ccc(-c2ccc(-c3ccc(CO)s3)o2)s1

>  <Discrete label>
active

$$$$
>  <Compound>
COc1cc(N2CCC(N3CCN(C)CC3)CC2)ccc1Nc1ncc(Cl)c(Nc2ccccc2P(C)(C)=O)n1

>  <Discrete label>
active

$$$$
>  <Compound>
Fc1ccc(-c2nc(-c3ccccc3F)[nH]c2-c2ccncc2)cc1

>  <Discrete label>
inactive

$$$$
>  <Compound>
N#Cc1ccnc(Nc2cc(C3CCN(C4COC4)CC3)cc(N3CCC(F)(F)C3)n2)c1

>  <Discrete label>
active

$$$$

* * *

Measurement protocol: BET inhibitor-based combinations targeting novel dependencies in MECOM-rearranged (r) AML: OCI-AML3 cell line (AID 2202232); note: nearly all actives have a fitted effect of over 35% in size; note: potency is the fitted concentration of half-maximal effect
Condition notes: CellTiter-Glo luminescence, 48 h; OCI-AML3 viability; series mostly up to 46 µM
Records with an inconclusive call do not appear. Calls of active or inactive are those of the source. Calls come from the whole dose curve; as a rule, active = well fitted inhibition curve with a large enough effect; inconclusive = small, poorly fitted or top-dose-only effect; inactive = no such curve, though single readings can be large or run the other way.

>  <Molecule>
CC(C(=O)O)c1ccc(-c2ccccc2)c(F)c1 (stereo unspecified)

>  <Potency>
inactive

$$$$
>  <Molecule>
Nc1nnc(-c2cccc(Cl)c2Cl)c(N)n1

>  <Potency>
inactive

$$$$
>  <Molecule>
COc1ccc(-c2c(-c3ccc(O)cc3O)n[nH]c2C)cc1

>  <Potency>
inactive

$$$$
>  <Molecule>
CC1(C)CC(=O)c2c(C(F)(F)F)nn(-c3ccc(C(N)=O)c(NC4CCC(O)CC4)c3)c2C1 (stereo unspecified)

>  <Potency>
74.2 nM (active)

$$$$
>  <Molecule>
Nc1cc(C(F)(F)F)c(-c2cc(N3CCOCC3)nc(N3CCOCC3)n2)cn1

>  <Potency>
1860 nM (active)

$$$$
>  <Molecule>
CO[C@@H](C)Cn1c(=O)n(C)c2cnc3ccc(-c4cncc(C(C)(C)O)c4)cc3c21

>  <Potency>
1180 nM (active)

$$$$

* * *

Study system: Aldehyde dehydrogenase, mitochondrial (Homo sapiens) (UniProt P05091)
Measurement protocol: qHTS for Inhibitors of the Aldehyde Dehydrogenase Family (ALDH2) Primary screen (AID 2061308); note: nearly all actives have a fitted effect of over 55% in size
Condition notes: ALDH2 enzyme inhibition qHTS, 1536-well; series mostly up to 56 µM
Results filed as inconclusive are left out. Active and inactive are the calls of the source. Calls come from the whole dose curve; as a rule, active = well fitted inhibition curve with a large enough effect; inconclusive = small, poorly fitted or top-dose-only effect; inactive = flat fitted curve, though single readings scatter.
Quantity kind: activity change, negative = inhibition

>  <Compound>
CCOc1cc2ncc(C#N)c(Nc3ccc(OCc4ccccn4)c(Cl)c3)c2cc1NC(=O)/C=C/CN(C)C

>  <Quantity kind>
activity change, negative = inhibition

>  <Observed value>
inactive

$$$$
>  <Compound>
CC1CC2OC3(OC2C(C)(C)O)C1C1(C)CCC24CC25CCC(O[C@@H]2OC[C@@H](O)[C@H](O)[C@H]2O)C(C)(C)C5CC=C4C1(C)C3O (stereo partly specified)

>  <Quantity kind>
activity change, negative = inhibition

>  <Observed value>
inactive

$$$$
>  <Compound>
CO[C@H]1C[C@@H]2CC[C@@H](C)[C@@](O)(O2)C(=O)C(=O)N2CCCC[C@H]2C(=O)O[C@H]([C@H](C)C[C@@H]2CC[C@H](n3cnnn3)[C@H](OC)C2)CC(=O)[C@H](C)/C=C(\C)[C@@H](O)[C@@H](OC)C(=O)[C@H](C)C[C@H](C)/C=C/C=C/C=C/1C

>  <Quantity kind>
activity change, negative = inhibition

>  <Observed value>
inactive

$$$$
>  <Compound>
CN(C)C/C=C/C(=O)Nc1cccc(C(=O)Nc2cccc(Nc3ncc(Cl)c(-c4c[nH]c5ccccc45)n3)c2)c1

>  <Quantity kind>
activity change, negative = inhibition

>  <Observed value>
inactive

$$$$
>  <Compound>
CN(C)C/C=C/C(=O)Nc1ccc(C(=O)Nc2cccc(Nc3ncc(Cl)c(-c4c[nH]c5ccccc45)n3)c2)cc1

>  <Quantity kind>
activity change, negative = inhibition

>  <Observed value>
inactive

$$$$
>  <Compound>
CC(=O)OCC1=CCC2C(C)(C)CCCC2(C)C12CCC(C)(CC(=O)O)O2 (stereo unspecified)

>  <Quantity kind>
activity change, negative = inhibition

>  <Observed value>
inactive

$$$$
>  <Compound>
O=C(/C=C\c1ccc(O)cc1)N[C@@H](Cc1ccc(O)cc1)C(=O)O

>  <Quantity kind>
activity change, negative = inhibition

>  <Observed value>
inactive

$$$$
>  <Compound>
Cn1cc(S(=O)(=O)c2ccc(Cl)cc2)c2cccc(N3CCNCC3)c21

>  <Quantity kind>
activity change, negative = inhibition

>  <Observed value>
inactive

$$$$
>  <Compound>
C=C1C(OC2OCC(O)C(O)C2O)CC2C(C)(C)C(O)CCC2(C)C1CC/C(C)=C\CO (stereo unspecified)

>  <Quantity kind>
activity change, negative = inhibition

>  <Observed value>
inactive

$$$$
>  <Compound>
CC(C)c1nc(-c2ccc(NC(=O)Nc3cccc(C(F)(F)F)c3)c3ccccc23)c2c(N)nccn12

>  <Quantity kind>
activity change, negative = inhibition

>  <Observed value>
inactive

$$$$
>  <Compound>
Cc1c(C(=O)N(C)CC2CCCO2)[nH]c2c1C(=O)CC(c1ccco1)C2 (stereo unspecified)

>  <Quantity kind>
activity change, negative = inhibition

>  <Observed value>
inactive

$$$$
>  <Compound>
CC(C)CCC1(O)C(=O)C(C)(C)C(O[C@@H]2O[C@H](CO)[C@@H](O)[C@H](O)[C@H]2O)C(C)(C)C1O (stereo partly specified)

>  <Quantity kind>
activity change, negative = inhibition

>  <Observed value>
inactive

$$$$
>  <Compound>
COc1cc(/C=C/C(=O)OC(C)(C)C(OC2OC(CO)C(O)C(O)C2O)C(=O)OCc2ccc(OC3OC(CO)C(O)C(O)C3O)cc2)ccc1O (stereo unspecified)

>  <Quantity kind>
activity change, negative = inhibition

>  <Observed value>
inactive

$$$$
>  <Compound>
O=C(/C=C/c1ccc2c(c1)OCO2)Nc1cccc([S+](=O)([O-])Nc2ccccc2F)c1

>  <Quantity kind>
activity change, negative = inhibition

>  <Observed value>
inactive

$$$$
>  <Compound>
CC1(C)CC23[C@@H]4CC(=O)[C@@H]2COC(=O)[C@@H]3CC[C@H]41

>  <Quantity kind>
activity change, negative = inhibition

>  <Observed value>
inactive

$$$$
>  <Compound>
CC(=O)O[C@H]1CC[C@@]2(C)C(CC[C@@H](C)[C@]23Cc2c(O)cc4c(c2O3)CN([C@@H](CCC(=O)O)C(=O)O)C4=O)C1(C)C (stereo partly specified)

>  <Quantity kind>
activity change, negative = inhibition

>  <Observed value>
inactive

$$$$
